ASSAY_OVERVIEW: S. cerevisiae growth inhibition in restrictive medium, OD615, pilot screen, restrictive growth control, yeast lifespan reduction project (AID 706);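 further: modified DeaD lifespan yeast strain shifted to restrictive glucose medium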
CONDITION: OD615, 48 h, at 10 µM, stronger effect = higher value

{"COMPOUND": "CCCNC(=O)C1CCN(S(=O)(=O)c2ccc3nc4c(c(C(=O)O)c3c2)CCCCC4)CC1", "QUANTITY_UNIT": "%", "growth inhibition": -0.39}
{"COMPOUND": "Cc1cc(N2CCOCC2)c2c(N)c(Br)cc(C)c2n1", "QUANTITY_UNIT": "%", "growth inhibition": -15.8}
{"COMPOUND": "COc1ccc(OC)c(NC(=O)CSc2nnc(Cc3cccn3C)n2-c2ccc(F)cc2)c1", "QUANTITY_UNIT": "%", "growth inhibition": 16.1}
{"COMPOUND": "Cc1cc(N)n2nc(-c3ccccc3)cc2n1", "QUANTITY_UNIT": "%", "growth inhibition": -13.9}
{"COMPOUND": "O=C1CC(c2ccccc2)CC(O)=C1C=NCCN1CCOCC1 (stereo not drawn)", "QUANTITY_UNIT": "%", "growth inhibition": 9.74}
{"COMPOUND": "COc1cc(-c2nc(-c3cccc(C)c3)no2)cc(OC)c1OC", "QUANTITY_UNIT": "%", "growth inhibition": -14.7}
{"COMPOUND": "CN1CCN(c2nc3c(c(=O)[nH]c(=O)n3C)n2CCSc2nc3ccccc3s2)CC1", "QUANTITY_UNIT": "%", "growth inhibition": -0.85}
{"COMPOUND": "Cc1cccc(-n2ncc3c(NCCCO)ncnc32)c1", "QUANTITY_UNIT": "%", "growth inhibition": -8.93}

* * *

ASSAY_OVERVIEW: MRP1 drug-resistance reversers in H69AR cells – cell-based, doxorubicin co-treatment, pilot screen (AID 601)
CONDITION: H69AR cells, CellTiter-Glo, 72 h; compound alone cytotoxicity; at 10 µM
Entries and their viability values follow.
METRIC_NAME: viability (%)

{"COMPOUND": "Cc1nc2ccccc2c2oc(C(=O)N3CCN(C(=O)c4ccco4)CC3)cc12", "OBS_VALUE": 83.1}
{"COMPOUND": "CC(C)(C)SCCNC(=O)COc1ccccc1", "OBS_VALUE": 96.8}
{"COMPOUND": "Cn1c(CSc2nc3ccccc3s2)nnc1SCC(=O)NCCN1CCOCC1", "OBS_VALUE": 98.5}
{"COMPOUND": "CCCC(=O)Nc1cc(C)c2c(=O)oc3ccccc3c2n1", "OBS_VALUE": 77.6}
{"COMPOUND": "COc1ccc(S(=O)(=O)Cc2ccc(C(=O)N3CCN(c4ccccc4)CC3)o2)cc1", "OBS_VALUE": 84.4}
{"COMPOUND": "O=C(NCCN1C(=O)C2C3C=CC(C3)C2C1=O)Nc1ccccn1 (configuration not stated)", "OBS_VALUE": 95.8}
{"COMPOUND": "CC1=C(C(=O)Nc2cccnc2)C(c2ccc(C(C)C)cc2)n2ncnc2N1 (configuration not stated)", "OBS_VALUE": 97.8}
{"COMPOUND": "O=C(CCN1C(=O)c2ccccc2C1=O)Nc1ccc(F)cc1", "OBS_VALUE": 104}
{"COMPOUND": "CSCCC(N=CC1=C(O)CC(C)(C)CC1=O)C(=O)O (configuration not stated)", "OBS_VALUE": 87.2}
{"COMPOUND": "COc1cccc(CNC(=O)Cn2c(=O)oc3ccccc32)c1OC", "OBS_VALUE": 92.3}
{"COMPOUND": "CCN(CC)C1CCCCC1NS(=O)(=O)c1ccc(Cl)cc1 (configuration not stated)", "OBS_VALUE": 101}
{"COMPOUND": "CC(=O)c1sc(NC(=O)C2COc3ccccc3O2)nc1C (configuration not stated)", "OBS_VALUE": 89.2}
{"COMPOUND": "CCCCc1cc2c(c(NC(C)=O)n1)c(=O)oc1ccccc12", "OBS_VALUE": 77.9}
{"COMPOUND": "COc1ccc(C(=O)NCc2nnc(SC)n2C2CCCCC2)cc1", "OBS_VALUE": 92}
{"COMPOUND": "Cn1c(=O)c2c(nc(CN3CCc4ccccc4C3)n2Cc2cccc(Cl)c2)n(C)c1=O", "OBS_VALUE": 31.2}
{"COMPOUND": "Cc1cc(C)n2nc(SCc3nc4ccccc4[nH]3)nc2n1", "OBS_VALUE": 95.7}
{"COMPOUND": "c1ccn2c(SCc3ccc4c(c3)OCCO4)nnc2c1", "OBS_VALUE": 92.1}
{"COMPOUND": "CC1(C)CC(=O)c2cnc(NC(=O)CCc3ccccc3)nc2C1", "OBS_VALUE": 90.2}
{"COMPOUND": "Cc1occc1C(=O)N1CCN(c2ncccn2)CC1", "OBS_VALUE": 95.8}
{"COMPOUND": "CCc1ccc(N2CC34C=CC(O3)C(C(=O)OC)C4C2=O)cc1 (configuration not stated)", "OBS_VALUE": 94.2}
{"COMPOUND": "COc1ccc(S(=O)(=O)Cc2ccc(C(=O)NCCc3ccc(S(N)(=O)=O)cc3)o2)cc1", "OBS_VALUE": 91.7}
{"COMPOUND": "CCC(C)(C(=O)NC1CCCC1)N(Cc1cccs1)C(C)=O (configuration not stated)", "OBS_VALUE": 96.9}
{"COMPOUND": "CC1CCc2nn(CC(=O)NCCN3CCCCC3C)cc2C1 (configuration not stated)", "OBS_VALUE": 90}
{"COMPOUND": "CCN1C(=C2C(=O)c3ccccc3C2=O)C=Cc2ccccc21", "OBS_VALUE": 93.4}
{"COMPOUND": "CCCC(=O)Nc1nc2ccc(S(N)(=O)=O)cc2s1", "OBS_VALUE": 106}
{"COMPOUND": "COc1ccc(-c2nnc3sc(C(C)N4C(=O)c5ccccc5C4=O)nn23)cc1 (configuration not stated)", "OBS_VALUE": 90.9}
{"COMPOUND": "COc1ccc(CCNC(=O)c2cc3sc(Cl)cc3n2C)cc1OC", "OBS_VALUE": 90.7}
{"COMPOUND": "COc1cccc(C2CC(c3ccc(F)cc3)Nc3nc(N)nn32)c1 (configuration not stated)", "OBS_VALUE": 103}
{"COMPOUND": "COc1ccccc1N1CCN(C(=O)c2cc(C3CC3)on2)CC1", "OBS_VALUE": 86.5}
{"COMPOUND": "COc1nc(Oc2ccc(=O)n(C)n2)nc(N(C)C)n1", "OBS_VALUE": 92.7}
{"COMPOUND": "COc1ccc(-c2nc(CCNC(=O)c3ccco3)cs2)cc1OC", "OBS_VALUE": 77.9}
{"COMPOUND": "Cc1noc(C)c1S(=O)(=O)N1CCN(Cc2ccc3c(c2)OCO3)CC1", "OBS_VALUE": 95.4}
{"COMPOUND": "CCOC(=O)N1CCN(c2cc(=O)n(-c3ccccc3Cl)c(=O)[nH]2)CC1", "OBS_VALUE": 86.9}
{"COMPOUND": "COc1cc2c(cc1OC)-c1nnc(C)n1C1(CCCC1)C2", "OBS_VALUE": 99}
{"COMPOUND": "CCCC(=O)C1=C(N(C)c2ccccc2)CC(C)(C)C(C(=O)OC)C1=O (configuration not stated)", "OBS_VALUE": 94.4}
{"COMPOUND": "COc1ccc(-n2ncc3c(N4CCN(c5cccc(C)c5C)CC4)ncnc32)cc1", "OBS_VALUE": 27.1}
{"COMPOUND": "Cc1cc(N2CCOCC2)nc2ccc(NC(=O)C3CCC(C)CC3)cc12 (configuration not stated)", "OBS_VALUE": 76.3}
{"COMPOUND": "CC(C)CCN(C)C1CCN(S(=O)(=O)c2ccc(F)cc2)CC1", "OBS_VALUE": 81}
{"COMPOUND": "Clc1ccc(Nc2ncnc3c2cnn3-c2ccccc2)cc1", "OBS_VALUE": 78.7}
{"COMPOUND": "CC(C)n1c(CN2CCN(C)CC2)nc2c1c(=O)n(C)c(=O)n2C", "OBS_VALUE": 98.5}
{"COMPOUND": "Cc1ccc(C(C(=O)NC2CCCCC2)N2CCOCC2)cc1 (configuration not stated)", "OBS_VALUE": 95.8}
{"COMPOUND": "O=C(Nc1nnc(-c2ccc(Cl)cc2)o1)C1CCCCC1", "OBS_VALUE": 69.2}
